Values compiled from patent US8912318B2.

Test system: mismatched DNA targets
Assay: UV thermal denaturation of 13-mer fluorophore probes with mismatched DNA targets
Type: binding
Details: DNA: 3′-d(GCG TTG BGT TGC G), B = T
Measured Tm, listed per entry.
The reply should contain only the number, in °C.

Here is how some substances turned out for Tm.
substance: ON14: 5′-CG CAA CP′C AAC GC (DNA CGCAACNCAACGC; modified nucleotide P', chemistry not fully specified)
target entity: mismatched DNA targets
Tm (°C): 44.5
--
substance: ON10: 5′-CG CAA CPC AAC GC (DNA CGCAACNCAACGC; listed as DNA, chemistry not fully specified)
target entity: mismatched DNA targets
Tm (°C): 46.0

Consider now this further substance.
Let me check: ON2: unmodified reference strand 5′-CG CAA CTC AAC GC (DNA CGCAACTCAACGC; DNA, backbone not given here) [reference compound] , system mismatched DNA targets, measured Tm is 46.5

###

System: mismatched DNA targets
Assay: UV thermal denaturation of 13-mer fluorophore probes with mismatched DNA targets
Format: binding
Conditions: DNA: 3′-d(GCG TTG BGT TGC G), B = C; relative to B = A
measure name: ΔTm

substance: SEQ ID NO: 10: 5′-d(CGC AAC γCA ACG C (DNA CGCAACNCAACGC; γ modified nucleotide, chemistry not fully specified)
measured: (−1.5) ° C.
//
substance: SEQ ID NO: 11: 5′-d(CGC AAC αCA ACG C (DNA CGCAACNCAACGC; α modified nucleotide, chemistry not fully specified)
measured: (−1.5) ° C.

###

Test system: mismatched DNA targets
Assay: UV thermal denaturation of 13-mer fluorophore probes with mismatched DNA targets
Assay type: binding
Conditions: DNA: 3′-d(GCG TTG BGT TGC G), B = G
measure name: Tm (°C)
The reply should contain only the number, in °C.

substance: ON2: unmodified reference strand 5′-CG CAA CTC AAC GC (DNA CGCAACTCAACGC; DNA, backbone not given here) [reference compound]
Tm (°C): 48.5

substance: ON10: 5′-CG CAA CPC AAC GC (DNA CGCAACNCAACGC; listed as DNA, chemistry not fully specified)
Tm (°C): 48.0

substance: SEQ ID NO: 11: 5′-d(CGC AAC αCA ACG C (DNA CGCAACNCAACGC; α modified nucleotide, chemistry not fully specified)
Tm (°C): 46.0

substance: SEQ ID NO: 9: 5′-d(CGC AAC βCA ACG C (DNA CGCAACNCAACGC; β modified nucleotide, chemistry not fully specified)
Tm (°C): 46.5

// ON14: 5′-CG CAA CP′C AAC GC (DNA CGCAACNCAACGC; modified nucleotide P', chemistry not fully specified) : Tm value = 44.5

// SEQ ID NO: 10: 5′-d(CGC AAC γCA ACG C (DNA CGCAACNCAACGC; γ modified nucleotide, chemistry not fully specified) : Tm value = 46.5

###

Tested on: complementary DNA
Assay: UV thermal denaturation of 13-mer fluorophore probes with complementary DNA
Assay type: binding
Conditions: DNA: 3′-d(GCG TTG BGT TGC G), B = A
Measured Tm, listed per entry.
The reply should contain only the number, in °C.

Here is how some substances turned out for Tm.
substance: SEQ ID NO: 9: 5′-d(CGC AAC βCA ACG C (DNA CGCAACNCAACGC; β modified nucleotide, chemistry not fully specified)
target entity: complementary DNA
Tm, °C: 56.5
--
substance: ON10: 5′-CG CAA CPC AAC GC (DNA CGCAACNCAACGC; listed as DNA, chemistry not fully specified)
target entity: complementary DNA
Tm, °C: 52.5
--
substance: SEQ ID NO: 10: 5′-d(CGC AAC γCA ACG C (DNA CGCAACNCAACGC; γ modified nucleotide, chemistry not fully specified)
target entity: complementary DNA
Tm, °C: 47.0
--
substance: SEQ ID NO: 11: 5′-d(CGC AAC αCA ACG C (DNA CGCAACNCAACGC; α modified nucleotide, chemistry not fully specified)
target entity: complementary DNA
Tm, °C: 44.5
--
substance: ON2: unmodified reference strand 5′-CG CAA CTC AAC GC (DNA CGCAACTCAACGC; DNA, backbone not given here) [reference compound]
target entity: complementary DNA
Tm, °C: 55.5

// ON14: 5′-CG CAA CP′C AAC GC (DNA CGCAACNCAACGC; modified nucleotide P', chemistry not fully specified) : Tm value = 51.5

###

Measured Tm, listed per entry.
Test system: mismatched DNA targets
Test: UV thermal denaturation of 13-mer fluorophore probes with mismatched DNA targets
Assay type: binding
Details: DNA: 3′-d(GCG TTG BGT TGC G), B = T
The reply should contain only the number, in °C.

substance: SEQ ID NO: 11: 5′-d(CGC AAC αCA ACG C (DNA CGCAACNCAACGC; α modified nucleotide, chemistry not fully specified)
Tm [°C]: 45.0

substance: SEQ ID NO: 9: 5′-d(CGC AAC βCA ACG C (DNA CGCAACNCAACGC; β modified nucleotide, chemistry not fully specified)
Tm [°C]: 48.5

Consider now this further substance.
Let me check: SEQ ID NO: 10: 5′-d(CGC AAC γCA ACG C (DNA CGCAACNCAACGC; γ modified nucleotide, chemistry not fully specified) , system mismatched DNA targets, measured Tm is 45.5

###

Measured discrimination factor Im/Imm, range, listed per entry.
Tested on: complementary or mismatched DNA targets
Assay: Steady-state fluorescence emission intensity with DNA targets
Details: intensity of duplex with complementary DNA divided by intensity of SSP or mismatched duplexes

Here is how some substances turned out for discrimination factor Im/Imm, range.
substance: ON13: 5′-CG CAA AP′A AAC GC (DNA CGCAAANAAACGC; modified nucleotide P', chemistry not fully specified)
measured: 3.4-14.1
--
substance: ON16: 5′-CG CAA TP′T AAC GC (DNA CGCAATNTAACGC; modified nucleotide P', chemistry not fully specified)
measured: 2.9-11.4
--
substance: ON10: 5′-CG CAA CPC AAC GC (DNA CGCAACNCAACGC; listed as DNA, chemistry not fully specified)
measured: 7.3-15.9

Consider now this further substance.
// ON11: 5′-CG CAA GPG AAC GC (DNA CGCAAGNGAACGC; listed as DNA, chemistry not fully specified) : discrimination factor Im/Imm, range value = 8.3-41.9

###

Test system: mismatched DNA targets
Assay: UV thermal denaturation of 13-mer fluorophore probes with mismatched DNA targets
Format: binding
Conditions: DNA: 3′-d(GCG TTG BGT TGC G), B = C
measure name: Tm (°C)
The reply should contain only the number, in °C.

Here is how some substances turned out for Tm.
substance: ON10: 5′-CG CAA CPC AAC GC (DNA CGCAACNCAACGC; listed as DNA, chemistry not fully specified)
target entity: mismatched DNA targets
measured: 43.0
--
substance: ON2: unmodified reference strand 5′-CG CAA CTC AAC GC (DNA CGCAACTCAACGC; DNA, backbone not given here) [reference compound]
target entity: mismatched DNA targets
measured: 42.0
--
substance: SEQ ID NO: 11: 5′-d(CGC AAC αCA ACG C (DNA CGCAACNCAACGC; α modified nucleotide, chemistry not fully specified)
target entity: mismatched DNA targets
measured: 43.0
--
substance: SEQ ID NO: 9: 5′-d(CGC AAC βCA ACG C (DNA CGCAACNCAACGC; β modified nucleotide, chemistry not fully specified)
target entity: mismatched DNA targets
measured: 43.0
--
substance: ON14: 5′-CG CAA CP′C AAC GC (DNA CGCAACNCAACGC; modified nucleotide P', chemistry not fully specified)
target entity: mismatched DNA targets
measured: 40.5

Consider now this further substance.
Let me check: SEQ ID NO: 10: 5′-d(CGC AAC γCA ACG C (DNA CGCAACNCAACGC; γ modified nucleotide, chemistry not fully specified) , system mismatched DNA targets, measured Tm is 45.5
